Where do the numbers come from? From PubChem BioAssay.

# Test system: F380Y/beta1
# test_method_notes: modulators of BK channel variants, profiling panel, selectivity assay, cell-based, U2OS BacMam, thallium flux, beta subunits (AID 1259406);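 note: initial slope of Thallos dye fluorescence rise after thallium is added; log ratio against the mean of 0.3% DMSO vehicle wells on the same plate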
# measurement_parameters: at 30 µM
Task for the reader: assign each of the following compounds its reported log fold change Tl+ flux.
When you answer, write just the number.

Problem: Supply measured log fold change Tl+ flux of `C[C@]12C=CC(=O)C=C1CC[C@@H]1[C@@H]2C(=O)C[C@@]2(C)[C@H]1CC[C@]2(O)C(=O)CO` in your reply.
Solution: 0.00863

Problem: State its log fold change Tl+ flux for this compound: `CN(C)CCC=C1c2ccccc2CCc2ccccc21`
Solution: 0.103

Problem: Name the recorded log fold change Tl+ flux of the compound listed here: `NNC(=O)c1ccncc1`
Solution: 0.0138

Problem: Check the records and state log fold change Tl+ flux for `Cc1ccc(C)c(OCCCC(C)(C)C(=O)O)c1`
Solution: 0.07

Problem: Supply recorded log fold change Tl+ flux for `Cc1ccc(O)c([C@H](CCN(C(C)C)C(C)C)c2ccccc2)c1` here.
Solution: 0.0975

Problem: Tell me measured log fold change Tl+ flux for `NS(=O)(=O)c1cc2c(cc1Cl)NCNS2(=O)=O` please.
Solution: -0.00418
